Assay target: α7nAChR (Homo sapiens)
Construct: expressed in transfected cells; host or cells: SK-N-MC (ATCC HTB-10), membranes
Sequence (P36544 23-502): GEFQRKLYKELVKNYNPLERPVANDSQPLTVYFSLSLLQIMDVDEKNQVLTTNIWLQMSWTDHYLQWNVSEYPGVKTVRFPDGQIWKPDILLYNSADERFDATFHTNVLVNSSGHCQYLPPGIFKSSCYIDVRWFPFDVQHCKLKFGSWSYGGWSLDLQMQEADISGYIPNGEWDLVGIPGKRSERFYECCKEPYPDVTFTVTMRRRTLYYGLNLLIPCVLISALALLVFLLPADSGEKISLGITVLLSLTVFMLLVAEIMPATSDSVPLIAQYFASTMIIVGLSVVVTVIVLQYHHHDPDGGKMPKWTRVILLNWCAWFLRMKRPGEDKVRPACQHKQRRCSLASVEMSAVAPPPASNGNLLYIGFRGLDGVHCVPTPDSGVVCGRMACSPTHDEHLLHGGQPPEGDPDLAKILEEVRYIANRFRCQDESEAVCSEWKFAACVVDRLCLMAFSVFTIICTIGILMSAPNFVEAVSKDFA
Run description: α7nAChR binding assay: 125I-β-amyloid1-40 binding to α7SK-N-MC membranes (SPA)
Settings: inhibition of 125I-β-amyloid1-40 (20 pM) binding to α7SK-N-MC membranes; second phase; read-out: Calculated EC50 for biphasic response, EC50 - 2
Recorded EC50 by entry

| Compound | Units label | EC50 |
| --- | --- | --- |
| CCCN(CCC)C1Cc2c(O)ccc(O)c2CC1C (centres unmarked) | µM | 34.7 |
| N[C@@H](Cc1ccc(O)cc1)C(=O)N1CCC[C@H]1C(=O)N[C@@H](Cc1c[nH]c2ccccc12)C(=O)N[C@@H](Cc1ccccc1)C(=O)O [YPWF peptide, YPWF] | µM | 0.0203 |
